Test system: AKR/Lw mice, AKR lymphoma ip, median survival T/C
assay-text: NCI In Vivo Anticancer Drug Screen. Data for tumor model Lymphoma AKR (Transplanted) (intraperitoneal) in AKR/Lw mice
condition-info: endpoint: median survival time; dose: 200.0 mg/kg/injection; schedule: Q01DX001 (ip); vehicle: other; higher = longer survival
Inconclusive results and toxic doses are left out.
outcome-measure: T/C

[
  {
    "molecule": "CC(=O)c1ccc2ccccc2c1O",
    "reading": "104 % of control"
  },
  {
    "molecule": "CCOC(=O)C(O)C(C#N)c1ccccc1 (stereo not given)",
    "reading": "103 % of control"
  },
  {
    "molecule": "c1cc2cc3c(cc2cc1CC1=NCCc2cc4c(cc21)OCO4)OCO3",
    "reading": "100 % of control"
  },
  {
    "molecule": "CC(=O)CC(=O)Nc1ccc([N+](=O)[O-])cc1",
    "reading": "94 % of control"
  },
  {
    "molecule": "O=CN(c1ccccc1)c1ccccc1",
    "reading": "118 % of control"
  }
]

Sourced from PubChem BioAssay AID190
